# System tested: Bifunctional epoxide hydrolase 2 (Homo sapiens, UniProt P34913)
# Sequence (P34913 whole entry): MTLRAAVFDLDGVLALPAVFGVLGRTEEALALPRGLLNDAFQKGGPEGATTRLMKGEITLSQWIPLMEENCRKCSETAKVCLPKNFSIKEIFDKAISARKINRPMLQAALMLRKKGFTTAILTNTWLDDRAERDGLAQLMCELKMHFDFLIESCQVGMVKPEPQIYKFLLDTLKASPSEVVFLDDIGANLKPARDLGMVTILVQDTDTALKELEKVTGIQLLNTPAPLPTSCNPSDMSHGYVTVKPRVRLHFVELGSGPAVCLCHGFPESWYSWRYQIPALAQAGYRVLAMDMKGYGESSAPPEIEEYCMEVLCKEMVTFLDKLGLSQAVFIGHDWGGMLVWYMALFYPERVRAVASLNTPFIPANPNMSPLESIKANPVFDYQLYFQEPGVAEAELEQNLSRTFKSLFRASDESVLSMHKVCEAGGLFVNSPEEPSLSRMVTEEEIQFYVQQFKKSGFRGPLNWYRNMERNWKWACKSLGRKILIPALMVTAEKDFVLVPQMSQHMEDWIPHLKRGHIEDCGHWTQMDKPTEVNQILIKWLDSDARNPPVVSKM
# Test details: Inhibition of recombinant human soluble epoxide hydrolase using PHOME as substrate incubated for 5 mins followed by substrate addition by fluorescence assay
Assay readout: IC50

[[record]]
compound = "CCOC(=O)C1=C(c2ccccc2)NC(=O)NC1c1ccc(NC(=O)c2ccc(Cl)cc2)cc1 (stereo not drawn)"
system_tested = "Bifunctional epoxide hydrolase 2 (Homo sapiens, UniProt P34913)"
val = "0.48 nM"

[[record]]
compound = "CCOC(=O)C1=C(c2ccccc2)NC(=O)NC1c1ccc(NC(=O)c2ccc(F)cc2)cc1 (stereo not drawn)"
system_tested = "Bifunctional epoxide hydrolase 2 (Homo sapiens, UniProt P34913)"
val = "0.96 nM"

[[record]]
compound = "CCOC(=O)C1=C(c2ccccc2)NC(=O)NC1c1ccc(NC(=O)c2ccc([N+](=O)[O-])cc2)cc1 (stereo not drawn)"
system_tested = "Bifunctional epoxide hydrolase 2 (Homo sapiens, UniProt P34913)"
val = "2 nM"

[[record]]
compound = "CCOC(=O)C1=C(c2ccccc2)NC(=O)NC1c1ccc(NC(=O)c2ccc(OC)cc2)cc1 (stereo not drawn)"
system_tested = "Bifunctional epoxide hydrolase 2 (Homo sapiens, UniProt P34913)"
val = "1.82 nM"

[[record]]
compound = "CCOC(=O)C1=C(c2ccccc2)NC(=O)NC1c1ccc(NC(=O)c2ccccc2)cc1 (stereo not drawn)"
system_tested = "Bifunctional epoxide hydrolase 2 (Homo sapiens, UniProt P34913)"
val = "1.22 nM"

[[record]]
compound = "CCOC(=O)C1=C(c2ccccc2)NC(=O)NC1c1ccc(NC(=O)c2ccc(C)cc2)cc1 (stereo not drawn)"
system_tested = "Bifunctional epoxide hydrolase 2 (Homo sapiens, UniProt P34913)"
val = "0.48 nM"

[[record]]
compound = "CCOC(=O)C1=C(c2ccccc2)NC(=O)NC1c1ccc(NC(=O)c2ccccc2C(=O)O)cc1 (stereo not drawn)"
system_tested = "Bifunctional epoxide hydrolase 2 (Homo sapiens, UniProt P34913)"
val = "1.92 nM"

[[record]]
compound = "CCOC(=O)C1=C(c2ccccc2)NC(=O)NC1c1ccc(NC(=O)CCC(=O)O)cc1 (stereo not drawn)"
system_tested = "Bifunctional epoxide hydrolase 2 (Homo sapiens, UniProt P34913)"
val = "2.22 nM"

